Please provide measured z-score for the entries that follow.
# Assay Method Text: ATP-based viability of Huh7 replicon cells – cell-based, CellTiter-Glo luminescence, basal, 48 h, cytotoxicity control for HCV replication inhibitor project, primary screen (AID 1143);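 also: Huh7 hepatoma cells carrying a hepatitis C replication reporter with no stimulus; test concentration not given here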
# Measurement Context: higher = more signal, called active from +8 up or from −8 down
Calls of active or inactive are those of the source.

Name the recorded z-score of the compound listed here: `COCCCNC(=O)[C@@]1(Sc2ccc(C)cc2)CC(=O)N(C2Cc3ccccc3C2)[C@@H]1c1ccc(CO)cc1`
-4.69 (inactive)

Note z-score for the compound shown: `COC(=O)[C@@]1(Cc2ccc(F)cc2)[C@H]2c3cc(C(=O)N4CCCC4)n(CCc4c[nH]c5ccccc45)c3C[C@H]2CN1C(=O)c1ccccc1`
-3.01 (inactive)

Supply recorded z-score for `CCCC=C(CCC)[C@@H](NC(=O)C(C)(C)C)c1ccc(C(=O)OC)cc1` here.
-2.97 (inactive)

Consider the compound `COCCOC(=O)N1C(=O)[C@@]2(c3cc(C#CCNC(N)=O)ccc31)[C@H](C(N)=O)[C@H]1C(=O)O[C@H](c3ccccc3)[C@H](c3ccccc3)N1[C@@H]2c1ccccc1OCCO` and give its recorded z-score.
0.406 (inactive)

Query z-score for `[N-]=[N+]=NCc1ccccc1C[C@@]1(C(N)=O)N=C(c2ccc(OCCCO)cc2)O[C@@H]1c1ccccc1`
-3.28 (inactive)

Provide only the value of recorded z-score for CCCCN1CC=CC23O[C@@H]4/C=C\CCC(C)OC(=O)C4[C@H]2C(=O)N(CCCO)[C@@H]3C1=O (stereo partly specified)
-0.183 (inactive)

Please give measured z-score of the following entry: `CCCCC(=C=CC[C@H](O)c1ccc(OCCO)cc1)CCO`
-1.08 (inactive)

Give the measured z-score for `C=CCN1C(=O)[C@]2(CCC(=O)OC(C)(C)C)N=C(c3ccc(OCCCO)cc3)O[C@@H]2c2ccccc21`
-3.67 (inactive)

Specify z-score for `COC(=O)[C@@]1(Cc2ccc(F)cc2)[C@H]2c3cc(C(=O)N(C)C)n(CCc4ccc(OC)c(Br)c4)c3C[C@H]2CN1C(=O)c1ccccc1` and stop.
-4.65 (inactive)

Note down z-score recorded for `COC(=O)[C@@]1(Cc2ccc(OC)cc2)[C@H]2c3cc(C(=O)N(C)C)n(Cc4ccc(OC(F)(F)F)cc4)c3C[C@H]2CN1C(=O)c1ccccc1`
-2.6 (inactive)

Supply measured z-score of `COc1ccc([Si](C)(C)[C@H]2[C@H](CC(=O)N(CCO)Cc3ccccc3)O[C@@]3(C(=O)N(C)c4c(Br)cc(C)cc43)[C@@H]2C)cc1` in your reply.
-5.69 (inactive)

Read off the recorded z-score for `CCOC(=O)C[C@H]1[C@H](OC(=O)c2ccc(-c3ccccc3)cc2)[C@@H](NC(=O)CC(C)C)c2cc(OCCCO)ccc2N1C(=O)c1ccc2ccccc2n1`
-0.0042 (inactive)

# return recorded z-score for input `CO[C@H]1O[C@H](CO)[C@@H](OC(=O)CCc2ccccc2)[C@@H]2OC(=O)[C@@H](Cc3ccccc3)C/C=C/C[C@H](Cc3ccccc3)C(=O)O[C@@H]12`
-2.33 (inactive)

Write down z-score measured for item `CC(C)[Si]1(C(C)C)OCc2cc(-c3ccc(-c4ccc(Cl)c(Cl)c4)o3)nc(-c3ccccc3)c21`
-0.243 (inactive)

Provide z-score value for the following compound: `C=CCNC(=O)[C@@H]1[C@H]2C(=O)O[C@H](c3ccccc3)[C@H](c3ccccc3)N2[C@H](c2ccccc2OCCO)[C@@]12C(=O)Nc1ccc(C#CCCO)cc12`
-3.75 (inactive)

Could you please provide reported z-score for CC(c1ccccc1)C(O)C1C=CC2C(=O)N(C)C(=O)C2N1Nc1ccccc1 (stereo unspecified) ? Thanks!
0.481 (inactive)
